biological target: CRBN/DDB1 (Homo sapiens (Human)); assay: HTRF binding assay to CRBN/DDB1; settings: read-out: CRBN HTRF IC50
observed property: IC50

Task: GET /values?readout=IC50&item= COc1cc(C(=O)N[C@@H]2CCC(=O)NC2=O)ncc1N1CCN(CC2CCC3(CC2)CN(c2ccc([C@H]4c5ccc(O)cc5OC[C@H]4c4ccccc4)cc2)C3)CC1 (single isomer, unassigned)
Result: 500 to 5000 nM

Task: Note, next up: Cc1nn(C2CCC(=O)NC2=O)c2ccc(N3CCN(CC4CC5(CCN(c6ccc([C@@H]7c8ccc(O)cc8OC[C@@H]7c7ccccc7)cc6)CC5)C4)CC3)cc12 (single isomer, unassigned)
Result: 50 to 500 nM

Task: Repeat with COc1cc(N2CCC3(CC2)CC(CN2CCC4(CC2)COc2c4ccc4c2CN(C2CCC(=O)NC2=O)C4=O)C3)c(F)cc1[C@H]1c2ccc(O)cc2OC[C@H]1c1ccccc1 (some centres unmarked) [Compound A130]
Result: 50 to 500 nM

Task: Also O=C1CC[C@H](N2Cc3c(ccc4c3OC[C@H]3CN(CC5CC6(CCN(c7ccc([C@H]8c9ccc(O)cc9OC[C@H]8c8ccccc8)cc7)CC6)C5)CCN43)C2=O)C(=O)N1 (single isomer, unassigned) , if possible.
Result: 50 to 500 nM

Task: Now consider O=C1CCC(N2Cc3cc4c(cc3C2=O)CN(C(=O)C2CCN(C3CCN(c5ccc([C@@H]6c7ccc(O)cc7OC[C@@H]6c6ccccc6)cc5)CC3)CC2)C4)C(=O)N1 (single isomer, unassigned) and answer again.
Result: 500 to 5000 nM

* * *

biological target: ER (Homo sapiens (Human)); assay: In-cell western (ICW) ER degradation assay in T47D cells; assay type: cell-based; details: ER degradation, 16 hrs
Sequence (P03372 whole entry): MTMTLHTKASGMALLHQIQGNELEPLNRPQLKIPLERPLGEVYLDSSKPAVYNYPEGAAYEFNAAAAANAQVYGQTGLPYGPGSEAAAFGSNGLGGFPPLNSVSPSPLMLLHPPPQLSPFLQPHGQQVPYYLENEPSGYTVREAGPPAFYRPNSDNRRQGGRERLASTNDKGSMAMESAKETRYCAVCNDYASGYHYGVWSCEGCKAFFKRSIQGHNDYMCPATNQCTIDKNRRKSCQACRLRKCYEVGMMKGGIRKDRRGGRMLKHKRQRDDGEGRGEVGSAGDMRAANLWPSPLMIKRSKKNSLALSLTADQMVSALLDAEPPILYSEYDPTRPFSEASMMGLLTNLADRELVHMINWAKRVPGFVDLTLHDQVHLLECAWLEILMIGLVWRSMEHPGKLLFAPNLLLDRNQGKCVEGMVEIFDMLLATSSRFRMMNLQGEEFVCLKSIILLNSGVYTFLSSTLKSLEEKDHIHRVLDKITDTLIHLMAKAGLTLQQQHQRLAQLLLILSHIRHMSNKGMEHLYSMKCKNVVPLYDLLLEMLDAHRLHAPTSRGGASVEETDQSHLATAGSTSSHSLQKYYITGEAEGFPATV
Exercise: for every item that follows, state its recorded DC50.

Task: What measured DC50 goes with O=C1CCC(N2Cc3cc4c(cc3C2=O)OC[C@@H]2CN(CC3CCC5(CC3)CN(c3ccc([C@@H]6c7ccc(O)cc7OC[C@@H]6c6ccccc6)cc3)C5)CCN42)C(=O)N1 (some centres unmarked) [Compound A53] ?
Result: 1 to 10 nM

Task: Also O=C1CC[C@@H](Nc2ccc(C3CCN(C[C@H]4COC5(CCN(c6ccc([C@@H]7c8ccc(O)cc8OC[C@@H]7c7ccccc7)cc6)CC5)C4)CC3)c(F)c2)C(=O)N1 (single isomer, unassigned) ?
Result: < 1 nM

Task: Please answer likewise for COc1cc(N2CCC(CN3CCN4c5cc6c(cc5OC[C@H]4C3)C(=O)N(C3CCC(=O)NC3=O)C6)CC2)ccc1[C@H]1c2ccc(O)cc2OC[C@H]1c1ccccc1 (some centres unmarked)
Result: 1 to 10 nM

Task: Follow-up entry: O=C1CCC(NC(=O)c2ccc3c(n2)OC[C@H]2CN(CC4CCN(c5ccc([C@H]6c7ccc(O)cc7OC[C@H]6c6ccccc6)cc5F)CC4)CCN32)C(=O)N1 (some centres unmarked)
Result: 1 to 10 nM

Task: Please do the same for O=C1CC[C@@H](N2Cc3c(ccc4c3OCC43CCN(CC4CC5(CCN(c6ccc([C@H]7c8ccc(O)cc8OC[C@H]7c7ccccc7)cc6)CC5)C4)CC3)C2=O)C(=O)N1 as well.
Result: 10 to 100 nM

Task: Try this molecule too: COc1cc(N2CCC(CN3CCN4c5ccc6c(c5OC[C@@H]4C3)CN([C@@H]3CCC(=O)NC3=O)C6=O)CC2)ccc1[C@H]1c2ccc(O)cc2OC[C@H]1c1ccccc1 (single isomer, unassigned)
Result: < 1 nM

Task: Okay, and COc1cc(N2CCC(CN3CCC(c4ccc(N[C@H]5CCC(=O)NC5=O)cc4)CC3)CC2)ccc1[C@@H]1c2ccc(O)cc2OC[C@@H]1c1ccccc1 (stereo in doubt) ?
Result: < 1 nM

Task: Another molecule: O=C1CCC(N2Cc3cc4c(cc3C2=O)CN(C(=O)CN2CCC3(CC2)CN(c2ccc([C@@H]5c6ccc(O)cc6OC[C@@H]5c5ccccc5)cc2)C3)C4)C(=O)N1 (some centres unmarked)
Result: 1 to 10 nM

* * *

molecular target: CRBN/DDB1 (Homo sapiens (Human), UniProt Q96SW2); experiment: HTRF binding assay to CRBN/DDB1; conditions: read-out: CRBN HTRF IC50
Sequence (Q96SW2 whole entry): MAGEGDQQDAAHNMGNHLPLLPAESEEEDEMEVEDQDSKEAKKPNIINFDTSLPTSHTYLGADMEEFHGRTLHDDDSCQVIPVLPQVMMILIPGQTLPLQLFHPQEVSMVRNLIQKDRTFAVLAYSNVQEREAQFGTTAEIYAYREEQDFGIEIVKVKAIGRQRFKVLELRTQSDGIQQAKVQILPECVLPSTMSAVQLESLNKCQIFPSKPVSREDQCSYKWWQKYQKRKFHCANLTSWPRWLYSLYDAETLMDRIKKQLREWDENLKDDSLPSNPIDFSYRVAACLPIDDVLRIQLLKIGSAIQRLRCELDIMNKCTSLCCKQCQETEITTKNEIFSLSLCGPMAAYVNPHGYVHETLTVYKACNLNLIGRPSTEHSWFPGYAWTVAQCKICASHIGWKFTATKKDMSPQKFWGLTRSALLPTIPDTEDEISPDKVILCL
Sequence (Q16531 whole entry partner): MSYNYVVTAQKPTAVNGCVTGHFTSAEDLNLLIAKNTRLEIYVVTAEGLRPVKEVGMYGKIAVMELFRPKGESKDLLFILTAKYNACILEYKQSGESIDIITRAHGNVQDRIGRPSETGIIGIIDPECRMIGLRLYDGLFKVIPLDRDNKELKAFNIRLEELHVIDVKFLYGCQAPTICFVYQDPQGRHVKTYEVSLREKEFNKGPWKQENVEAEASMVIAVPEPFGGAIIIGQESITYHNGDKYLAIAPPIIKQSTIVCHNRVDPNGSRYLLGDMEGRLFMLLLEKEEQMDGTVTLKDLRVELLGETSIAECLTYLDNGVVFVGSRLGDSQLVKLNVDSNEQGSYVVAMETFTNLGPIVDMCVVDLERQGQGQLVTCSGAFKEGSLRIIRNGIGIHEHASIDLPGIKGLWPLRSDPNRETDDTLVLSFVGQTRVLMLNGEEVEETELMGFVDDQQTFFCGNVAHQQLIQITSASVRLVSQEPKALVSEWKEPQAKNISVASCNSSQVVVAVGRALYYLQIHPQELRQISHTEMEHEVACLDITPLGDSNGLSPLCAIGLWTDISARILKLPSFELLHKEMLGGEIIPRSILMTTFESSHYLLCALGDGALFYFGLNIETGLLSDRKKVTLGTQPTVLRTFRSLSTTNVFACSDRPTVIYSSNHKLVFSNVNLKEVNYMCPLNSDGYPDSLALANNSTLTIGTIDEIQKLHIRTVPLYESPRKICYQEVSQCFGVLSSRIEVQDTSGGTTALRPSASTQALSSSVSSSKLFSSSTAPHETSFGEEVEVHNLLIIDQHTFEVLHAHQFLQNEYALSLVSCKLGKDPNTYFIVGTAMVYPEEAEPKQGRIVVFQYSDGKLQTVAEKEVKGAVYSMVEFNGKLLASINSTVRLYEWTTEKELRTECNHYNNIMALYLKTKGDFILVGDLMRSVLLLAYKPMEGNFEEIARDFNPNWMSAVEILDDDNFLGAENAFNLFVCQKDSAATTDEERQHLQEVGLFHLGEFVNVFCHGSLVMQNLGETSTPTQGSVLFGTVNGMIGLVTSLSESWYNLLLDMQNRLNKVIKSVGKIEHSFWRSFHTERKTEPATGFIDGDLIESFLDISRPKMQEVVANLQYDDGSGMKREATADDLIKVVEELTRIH
pIC50: −log10 of the molar value.
observed property: pIC50

Task: If you can, please state the reported pIC50 value of O=C1CC[C@@H](N2Cc3c(ccc4c3OC[C@@H]3CN(CC5COC6(CCN(c7ccc([C@@H]8c9ccc(O)cc9OC[C@@H]8c8ccccc8)cc7F)CC6)C5)CCN43)C2=O)C(=O)N1 (single isomer, unassigned) .
Result: > 7.30

Task: How about this molecule: O=C1CC[C@@H](Nc2ccc(C3CCN(CC4CCC5(CC4)CN(c4ccc([C@H]6c7ccc(O)cc7OC[C@H]6c6ccccc6)cc4)C5)CC3)cc2)C(=O)N1 (single isomer, unassigned)
Result: 5.30 to 6.30

Task: For O=C1CCC(N2Cc3c(ccc4c3OC[C@@H]3CN(CC5CC6(CCN(c7ccc([C@@H]8c9ccc(O)cc9OC[C@@H]8c8ccccc8)cc7)CC6)C5)CCN43)C2=O)C(=O)N1 (stereo partly drawn) then?
Result: > 7.30

* * *

molecular target: ER (Homo sapiens (Human)); test: In-cell western (ICW) ER degradation assay in T47D cells; assay type: cell-based; settings: ER degradation, 16 hrs
observed property: DC50

Task: Lab request: please report DC50 under test system ER (Homo sapiens (Human)) for O=C1CCC(NC(=O)c2ccc3c(n2)OC[C@H]2CN(CC4CCN(c5ccc([C@@H]6c7ccc(O)cc7OC[C@@H]6c6ccccc6)cc5F)CC4)CCN32)C(=O)N1 (single isomer, unassigned)
Result: 1 to 10 nM

Task: Can you check O=C1CCC(N2Cc3c(ccc4c3OC[C@H]3CN(CC5CCN(c6ccc([C@H]7c8ccc(O)cc8OC[C@H]7c7ccccc7)cn6)CC5)CCN43)C2=O)C(=O)N1 (single isomer, unassigned) next?
Result: 1 to 10 nM

Task: Same lookup for COc1cccc([C@H]2COc3cc(O)ccc3[C@H]2c2ccc(N3CCC(CN4CCN5c6ccc7c(c6OC[C@H]5C4)CN(C4CCC(=O)NC4=O)C7=O)CC3)cc2)c1 (single isomer, unassigned) , please.
Result: 1 to 10 nM

Task: Follow-up entry: COc1cc(N2CCC3(CC2)CC(CN2CCN4c5ccc6c(c5OC[C@@H]4C2)CN([C@@H]2CCC(=O)NC2=O)C6=O)C3)c(F)cc1[C@H]1c2ccc(O)cc2OC[C@H]1c1ccccc1
Result: < 1 nM

Task: Could you do the same for O=C1CCC(NC(=O)c2ccc(N3CCN(CC4CCN(c5ccc([C@H]6c7ccc(O)cc7OC[C@H]6c6ccccc6)cc5F)CC4)CC3)cn2)C(=O)N1 (single isomer, unassigned) , please?
Result: 1 to 10 nM

Task: Same lookup for CC(C(=O)N1Cc2cc3c(cc2C1)C(=O)N(C1CCC(=O)NC1=O)C3=O)N1CCC2(CCN(c3ccc([C@H]4c5ccc(O)cc5OC[C@H]4c4ccccc4)cc3)CC2)CC1 (single isomer, unassigned) , please.
Result: > 100 nM

Task: Here is the next compound: O=C1CC[C@@H](N2Cc3cc4c(cc3C2=O)OC[C@@H]2CN(C[C@H]3COC5(CCN(c6ccc([C@H]7c8ccc(O)cc8OC[C@H]7c7ccccc7)cc6)CC5)C3)CCN42)C(=O)N1
Result: 1 to 10 nM

Task: How about this compound: O=C1CCC(N2Cc3c(ccc4c3OC[C@H]3CN(CC5CC6(CCN(c7ccc([C@@H]8c9ccc(O)cc9OC[C@@H]8c8ccccc8)cn7)CC6)C5)CCN43)C2=O)C(=O)N1 (single isomer, unassigned) [Compound A66]
Result: 1 to 10 nM

Task: Next up: O=C1CC[C@@H](Nc2ccc(C3CCN(CC4CCC5(CC4)CN(c4ccc([C@H]6c7ccc(O)cc7OC[C@H]6c6ccccc6)cc4)C5)CC3)cc2)C(=O)N1 (single isomer, unassigned)
Result: < 1 nM

Task: Could you do the same for O=C1CCC(NC(=O)c2ccc(N3CCN(CC4CC5(CCN(c6ccc([C@@H]7c8ccc(O)cc8OC[C@@H]7c7ccccc7)cc6)CC5)C4)CC3)cn2)C(=O)N1 (stereo partly shown) , please?
Result: 1 to 10 nM

Task: What about O=C1CC[C@H](NC(=O)c2ccc3c(n2)OC[C@H]2CN(C[C@H]4COC5(CCN(c6ccc([C@@H]7c8ccc(O)cc8OC[C@@H]7c7ccccc7)cc6)CC5)C4)CCN32)C(=O)N1 ?
Result: < 1 nM

Task: Moving on to the next compound: O=C1CC[C@@H](N2Cc3c(ccc4c3OC[C@@H]3CN(C[C@@H]5COC6(CCN(c7ccc([C@H]8c9ccc(O)cc9OC[C@H]8c8ccccc8)cc7)CC6)C5)CCN43)C2=O)C(=O)N1 (single isomer, unassigned)
Result: 1 to 10 nM

Task: Input O=C1CC[C@@H](N2Cc3c(ccc4c3OC[C@@H]3CN(C[C@H]5COC6(CCN(c7ccc([C@H]8c9ccc(O)cc9OC[C@H]8c8ccccc8)cc7)CC6)C5)CCN43)C2=O)C(=O)N1
Result: < 1 nM

Task: Follow-up entry: Cn1c(=O)n(C2CCC(=O)NC2=O)c2ccc(C3CCN(CC4CC5(CCN(c6ccc([C@@H]7c8ccc(O)cc8OC[C@@H]7c7ccccc7)cc6)CC5)C4)CC3)cc21 (single isomer, unassigned)
Result: < 1 nM

Task: Moving on to O=C1CC[C@H](NC(=O)c2ccc3c(n2)OC[C@H]2CN(C[C@@H]4COC5(CCN(c6ccc([C@@H]7c8ccc(O)cc8OC[C@@H]7c7ccccc7)cc6)CC5)C4)CCN32)C(=O)N1
Result: < 1 nM

Task: Next: O=C1CCC(N2Cc3cc4c(cc3C2=O)OC[C@@H]2CN(CC3CCN(c5ccc([C@@H]6c7ccc(O)cc7OC[C@@H]6c6ccccc6)cn5)CC3)CCN42)C(=O)N1 (single isomer, unassigned)
Result: 1 to 10 nM

Entry source: patent US20260000676A1
